These entries and their values trace back to patent US8263613B2.

Test: Oral pharmacokinetic study in male rats (oral gavage)
Assay type: in vivo, rat
Conditions: male, CD, rat, plasma, po, 75 mg/kg, 75 mg/kg (free base equivalents), 0.5% CMC
measured.parameter: Cmax
Don't forget the unit after the number, please.

QUERY: Which Cmax value is on record for Cc1c(CN(C)C(=O)/C=C/c2cnc3c(c2)CCC(=O)N3)oc2ccccc12 [Free base] ?
RESULT: 246 ng/mL

====

Assay: Solubility in cyclodextrins
Type: physicochemical
Conditions: aqueous with cosolvent or surfactant or cyclodextrin, thermodynamic from solid, cyclodextrin concentration 40%; read-out: Solubility in Hydroxypropyl Beta-Cyclodextrin
measured.parameter: solubility (µg/mL)
The response must be a number in µg/mL with no trailing unit.

QUERY: Dear colleague, I am looking for the recorded solubility of the following compound: Cc1c(CN(C)C(=O)/C=C/c2cnc3c(c2)CCC(=O)N3)oc2ccccc12.Cc1ccc(S(=O)(=O)O)cc1.O [Tosylate monohydrate milled]
RESULT: 370
